target: T1, recombinant human IL4Rα-his protein (in house made) (human, UniProt P24394 26-232, limits assumed); assay: SPR (Biacore), antibody captured, IL4Rα-his flowed
T1 construct: also called Human IL4Ra-his
Measured kon accompanies every entry in the list below.
Your answer is read as M⁻¹ s⁻¹, so omit the unit and give the number.

- BINDER: "mouse antibody C2B2F7B7 (antibody, V domains shown, Mouse hybridoma mAb) VH: EVQLVESGGGLVQPGGSLKLSCAASGFTFSTYGMSWVRQTPDKRLELVATINSNGGSTNYPDSVKGRFTISRDNAKNTLYLQMSSLKSEDTAMYYCARFFRIRNAMDYWGQGTSVTVSS VL: DIQMTQSPASLSASVGETVTITCRASENIYSYLAWYQQKQGKSPQFLVYNAKTLAEGVPSRFSGSGSGTQFSLKINSLQPEDFGSYYCQHYYGTPTWTFGGGTKLEIK"
  ENDPOINT VALUE: 251000
- BINDER: "mouse antibody B8G11F2B7G5E8 (antibody, V domains shown, Mouse hybridoma mAb; also called Mouse B8G11F2B7G5E8; mAb B8G11F2B7G5E8) VH: EVQLQQSGADLVRPGASVKLSCTASGFNIKDTYMHWVKQRPEQGLEWVGRIDPTNGYTIYASKFQGKATITADTSSNTAYMQLSSLTSGDTAVYHCVSRRPWFAYWGQGTLVTVSA VL: DILMTQTPLSLPVSLGAQASISCRSSQSIVHSNGNTYLEWYLQKPGQSPKLLIYKVTNRFSGVPDRFSGSGSGTDFTLKISRVEAEDLGIYYCFQGSHVPYTFGGGTKLEIK"
  ENDPOINT VALUE: 197000
- BINDER: "mouse antibody B9D1D11F8D8 (antibody, V domains shown, Mouse hybridoma mAb) VH: EVKLVESGGGLVKPGGSLKLSCAASGFTFSSYAMSWVRQTPEKRLEWVASISSGDSTYYLDSVKGRFTISRDNARNILYLQVSSLRSEDTAMYYCERSGGSAPYWGQGTLVTVSA VL: QIVLTQSPAIMSASPGDMVTISCSASSSVNYMYWYQQKPGSSPKPWIYRTSNLASGVPARFSGSGSGTSYSLTISSMEAEDAATYYCQQYHSFPLTFGAGTKLELK"
  ENDPOINT VALUE: 418000

Next:
Briefly, kon measured for mouse antibody C2C1A1A1 (antibody, V domains shown, Mouse hybridoma mAb; also called Mouse C2C1A1A1) VH: EVQLVESGGGLVQPGGSLKLSCAASGFTFSTYGMSWVRQTPDKRLELVATINSNGGSTSYPDSVKGRFTISRDNAKNTLYLQMSSLKSEDTAMFYCARFFRFRNAMDYWGQGTSVTVSS VL: DIQMTQSPASLSASVGETVTITCRTSENIYSYLAWYQQKQGKSPQFLVYNAKTLAEGVPSRFSGSGSGTQFSLNINSLQSEDFGSYYCQHYYGPPTWTFGGGTKLEIK : 290000
